Sourced from PubChem BioAssay (NCATS)

- EXPERIMENT: qHTS to identify inhibitors of the type 1 interferon - major histocompatibility complex class I in skeletal muscle: primary screen against the NCATS Pharmaceutical Collection (AID 1347407);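 note: luminescence of HiBiT knocked into endogenous HLA-B as interferon-induced MHC class I level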; note: potency is the fitted concentration of half-maximal effect
- CONDITION LABEL: human skeletal muscle cells, IFN-b-induced MHC-I HiBiT luminescence, 24 h; series mostly up to 45.9 µM
- Text: Assay Submitter (PI): Travis B. Kinder Ph.D. & James Inglese Ph.D. Assay Development and Screening Technology Laboratory (ADST) National Center for Advancing Translational Sciences (NCATS), Rockville, MD National Institute of Health (NIH), Bethesda, Maryland […]
Results filed as inconclusive are left out. Activity calls are given as the source filed them. Calls come from the whole dose curve; as a rule, active = well fitted inhibition curve with a large enough effect; inconclusive = small, poorly fitted or top-dose-only effect; inactive = flat fitted curve, though single readings scatter.

SMILES NOTATION | Potency
COc1cnc(NS(=O)(=O)c2ccc(N)cc2)nc1 | inactive
O[C@@H](CNC[C@H](O)[C@H]1CCc2cc(F)ccc2O1)[C@@H]1CCc2cc(F)ccc2O1 | 26.4 µM (active)
NC(N)=NC(N)=NCCc1ccccc1 | inactive
O=C(N[C@H](CO)[C@H](O)c1ccc([N+](=O)[O-])cc1)C(Cl)Cl | inactive
COc1ncnc(NS(=O)(=O)c2ccc(N)cc2)c1OC | inactive
